Reference for the values: paper PMC9756503

Target: ABCC4 (Homo sapiens, UniProt O15439)
Construct: inside-out vesicles (IOV)s where erythrocytes from healthy, human donors were sampled; endogenous in cells; host or cells: inside-out vesicles from erythrocytes of healthy human donors
Sequence (O15439 whole entry): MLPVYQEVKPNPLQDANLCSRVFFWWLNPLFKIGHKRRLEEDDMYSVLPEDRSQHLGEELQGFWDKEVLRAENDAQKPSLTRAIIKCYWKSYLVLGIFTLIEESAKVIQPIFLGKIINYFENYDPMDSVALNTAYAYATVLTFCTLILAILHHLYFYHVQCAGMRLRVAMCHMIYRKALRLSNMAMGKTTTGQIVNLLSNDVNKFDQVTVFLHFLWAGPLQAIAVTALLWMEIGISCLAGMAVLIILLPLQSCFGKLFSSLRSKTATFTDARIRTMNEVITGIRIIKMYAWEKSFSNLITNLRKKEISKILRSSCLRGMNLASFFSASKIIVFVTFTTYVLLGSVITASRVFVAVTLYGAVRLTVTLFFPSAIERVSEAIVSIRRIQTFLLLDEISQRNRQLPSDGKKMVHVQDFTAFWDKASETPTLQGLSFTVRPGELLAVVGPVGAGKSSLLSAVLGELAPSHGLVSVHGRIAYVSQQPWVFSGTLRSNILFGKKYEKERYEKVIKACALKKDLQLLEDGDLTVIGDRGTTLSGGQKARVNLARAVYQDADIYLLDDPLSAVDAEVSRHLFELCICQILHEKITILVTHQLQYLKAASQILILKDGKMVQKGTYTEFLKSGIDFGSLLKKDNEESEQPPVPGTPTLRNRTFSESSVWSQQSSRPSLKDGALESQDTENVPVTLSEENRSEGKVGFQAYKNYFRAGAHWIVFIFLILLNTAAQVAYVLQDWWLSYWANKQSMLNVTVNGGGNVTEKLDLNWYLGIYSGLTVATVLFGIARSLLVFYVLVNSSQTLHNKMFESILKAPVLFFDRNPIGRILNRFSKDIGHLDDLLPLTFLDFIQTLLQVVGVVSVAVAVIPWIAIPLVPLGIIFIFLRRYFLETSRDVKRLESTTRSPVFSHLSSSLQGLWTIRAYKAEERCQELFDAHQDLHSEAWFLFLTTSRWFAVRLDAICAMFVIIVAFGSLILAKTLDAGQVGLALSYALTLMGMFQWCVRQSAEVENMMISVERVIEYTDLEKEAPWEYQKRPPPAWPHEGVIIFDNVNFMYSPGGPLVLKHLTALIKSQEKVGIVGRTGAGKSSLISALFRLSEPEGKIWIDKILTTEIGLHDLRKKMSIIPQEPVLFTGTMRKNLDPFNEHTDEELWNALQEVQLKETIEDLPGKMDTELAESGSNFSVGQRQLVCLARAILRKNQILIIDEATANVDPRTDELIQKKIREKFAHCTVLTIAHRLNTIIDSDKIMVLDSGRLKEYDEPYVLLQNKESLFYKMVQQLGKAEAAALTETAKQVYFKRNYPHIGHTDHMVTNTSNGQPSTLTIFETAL
Test: biochemical
Format: biochemical
Details: 32 °C; read-out: IC50 for inhibition of cAMP-efflux
observable: pIC50
The scale used: pIC50 is minus the common logarithm of the concentration in molar units.

Reported pIC50 for `CC(=O)CCCCn1c(=O)c2c(ncn2C)n(C)c1=O` was 5.70

###

Target: ABCC5 (Homo sapiens, UniProt O15440)
Construct: inside-out vesicles (IOV)s where erythrocytes from healthy, human donors were sampled; endogenous in cells; host or cells: inside-out vesicles from erythrocytes of healthy human donors
Sequence (O15440 whole entry): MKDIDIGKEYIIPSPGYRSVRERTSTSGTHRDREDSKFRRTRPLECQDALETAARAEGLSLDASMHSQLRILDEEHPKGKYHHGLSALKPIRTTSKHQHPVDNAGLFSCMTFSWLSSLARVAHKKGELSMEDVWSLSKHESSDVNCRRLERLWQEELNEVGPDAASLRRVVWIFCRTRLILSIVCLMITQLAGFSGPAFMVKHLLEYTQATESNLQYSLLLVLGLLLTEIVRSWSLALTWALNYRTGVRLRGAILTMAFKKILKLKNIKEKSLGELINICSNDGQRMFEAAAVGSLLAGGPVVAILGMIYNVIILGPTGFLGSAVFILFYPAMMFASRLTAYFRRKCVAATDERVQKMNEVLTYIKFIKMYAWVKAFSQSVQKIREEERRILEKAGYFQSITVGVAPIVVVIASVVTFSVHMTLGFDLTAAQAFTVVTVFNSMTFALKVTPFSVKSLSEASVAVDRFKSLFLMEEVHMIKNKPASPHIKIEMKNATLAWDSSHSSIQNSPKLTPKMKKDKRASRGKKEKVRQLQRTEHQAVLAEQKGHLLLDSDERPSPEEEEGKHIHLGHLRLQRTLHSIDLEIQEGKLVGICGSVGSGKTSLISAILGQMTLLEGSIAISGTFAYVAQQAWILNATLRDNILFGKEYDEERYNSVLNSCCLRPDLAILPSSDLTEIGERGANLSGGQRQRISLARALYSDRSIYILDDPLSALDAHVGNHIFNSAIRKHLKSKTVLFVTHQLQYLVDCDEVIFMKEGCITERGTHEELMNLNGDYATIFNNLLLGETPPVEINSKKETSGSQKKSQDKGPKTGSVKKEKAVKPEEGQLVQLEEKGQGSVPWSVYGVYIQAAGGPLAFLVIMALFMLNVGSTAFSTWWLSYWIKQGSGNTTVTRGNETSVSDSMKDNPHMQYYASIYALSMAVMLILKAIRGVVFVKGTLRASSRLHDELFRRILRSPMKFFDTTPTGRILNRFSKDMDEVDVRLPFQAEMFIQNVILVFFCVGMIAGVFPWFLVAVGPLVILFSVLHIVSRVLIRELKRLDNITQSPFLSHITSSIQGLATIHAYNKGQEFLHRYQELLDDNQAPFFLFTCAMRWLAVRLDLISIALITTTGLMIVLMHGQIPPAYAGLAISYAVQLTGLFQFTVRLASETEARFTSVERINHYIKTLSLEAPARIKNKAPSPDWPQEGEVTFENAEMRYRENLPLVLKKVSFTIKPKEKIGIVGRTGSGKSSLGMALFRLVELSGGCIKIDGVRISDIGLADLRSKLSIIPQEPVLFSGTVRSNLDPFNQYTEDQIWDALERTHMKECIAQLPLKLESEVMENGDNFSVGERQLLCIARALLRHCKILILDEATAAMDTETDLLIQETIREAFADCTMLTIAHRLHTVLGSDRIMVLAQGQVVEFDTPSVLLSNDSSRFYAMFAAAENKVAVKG
Assay: Inhibition of [3H]-cGMP efflux in erythrocyte inside-out vesicles
Type: biochemical
Details: 28 °C
observable: pIC50
The scale used: pIC50 is minus the common logarithm of the concentration in molar units.

Reported pIC50 for `CC(=O)CCCCn1c(=O)c2c(ncn2C)n(C)c1=O` was 6.07
